Where these numbers come from: ChEMBL document CHEMBL3301361

assay_comment: physchem
applied_conditions: pH 7.4 buffer
experimental_endpoint: solubility thermodynamic (µM)

# molecule, experimental_endpoint, value_reported
data = [
    ("COc1cc(NS(=O)(=O)c2ccc(N)cc2)nc(OC)n1", "solubility thermodynamic", 1290),
    ("N=C(N)c1ccc2cc(C(=O)Nc3ccc(CN)cc3)cc(Nc3ncccn3)c2c1", "solubility thermodynamic", 151),
    ("COc1cc(Nc2cc(Nc3c(Cl)ccc4c3OCO4)ncn2)cc(OC)c1OC", "solubility thermodynamic", 2.5),
    ("FC(F)(F)c1nnc2ccc(N3CCCCCC3)nn12", "solubility thermodynamic", 132),
    ("OC1(C#Cc2ccc(-c3ccccc3)cc2)CN2CCC1CC2 (stereo not given)", "solubility thermodynamic", 14.8),
    ("COc1cc2c(Nc3ncc(CNS(=O)(=O)c4cccc(F)c4)s3)ncnc2cc1OCCCN1CCC(CO)CC1", "solubility thermodynamic", 302),
    ("CC(C)(C)[C@@H](C#N)NC(=O)[C@@H]1CCCC[C@H]1C(=O)N1CCc2[nH]c3ccc(F)cc3c2C1", "solubility thermodynamic", 74.1),
    ("C[C@@H](CN(C)C(=O)CO)Oc1cccc2ncnc(Nc3ccc(OCc4ccccn4)c(Cl)c3)c12", "solubility thermodynamic", 8.9),
    ("Cn1cc(C2=C(c3cccc(NCC(O)CO)c3)C(=O)NC2=O)c2cc(F)ccc21 (stereo not given)", "solubility thermodynamic", 4.4),
    ("O=C1CC2(CCCC2)CC(=O)N1CCCCN1CCN(c2ncccn2)CC1", "solubility thermodynamic", 1450),
    ("CN(C)S(=O)(=O)n1c2ccccc2c2cc(NC(=O)CCc3ccncc3)ccc21", "solubility thermodynamic", 9.5),
    ("O=c1[nH]c2cc(Cl)c([N+](=O)[O-])cc2c(O)c1-c1ccccc1", "solubility thermodynamic", 29.5),
    ("CC1(C)CNc2cc(NC(=O)c3cccnc3NCc3ccncc3)ccc21", "solubility thermodynamic", 44.7),
    ("CCc1[nH]nc(NC(=O)Cc2ncc(Oc3ccnc4cc(OC)c(OC)cc34)cc2OC)c1C", "solubility thermodynamic", 37.2),
    ("Oc1ccc(-n2ccnc2)cc1", "solubility thermodynamic", 1260),
    ("C[C@]1(O)C[C@@H](c2nc(-c3ccc4ccc(-c5ccccc5)nc4c3)c3c(N)nccn32)C1", "solubility thermodynamic", 1.3),
    ("C#CCN(Cc1cc2c(=O)[nH]c(C)nc2cc1C)c1ccc(C(=O)NCc2cccc([N+](=O)[O-])c2)c(F)c1", "solubility thermodynamic", 0.1),
    ("CC(C)(C)OC(=O)N1CCC(OCc2nc(-c3ccncc3)no2)CC1", "solubility thermodynamic", 269),
    ("Cc1ccc(NC(=O)N2CCN(C[C@@H]3CCCN(C4CC4)C3)CC2)cc1Cl", "solubility thermodynamic", 575),
    ("c1ccc(Nc2ccnc(Nc3ccccc3)n2)cc1", "solubility thermodynamic", 15.1),
    ("Cc1ncc(-c2ccnc(Nc3ccc(F)cc3)n2)n1C(C)C", "solubility thermodynamic", 107),
    ("CCCSc1nc2ccc(NC(=O)CCNC(N)=O)cc2s1", "solubility thermodynamic", 93.3),
    ("O=c1cc(CN2CCOCC2)occ1OCCCCCSc1ccnc2cc(C(F)(F)F)ccc12", "solubility thermodynamic", 77.6),
    ("Cc1sc(N2CCN(C(=O)[C@@H]3CCCC[C@H]3C(=O)NC3(C#N)CC3)CC2)nc1C(F)(F)F", "solubility thermodynamic", 1070),
    ("Nc1nnc(-c2ccccc2F)s1", "solubility thermodynamic", 316),
    ("COc1cc(OC)cc(-c2cc3cnc(N)nc3nc2NC(=O)NC(C)(C)C)c1", "solubility thermodynamic", 0.4),
    ("O=C(NCC12CC3CC(CC(C3)C1)C2)c1cc(N2CCNCC2)ccc1Cl", "solubility thermodynamic", 224),
    ("COc1ccc(C(=O)N2CCC(C(=O)c3ccc(F)cc3)CC2)cc1", "solubility thermodynamic", 21.4),
    ("CCN(CC)CCn1c2ccccc2c2cnc(N)c(C#N)c21", "solubility thermodynamic", 58.9),
    ("COc1cc2ncnc(Nc3cccc(Cl)c3F)c2cc1CN(C)C1(C(N)=O)CN(C(C)C)C1", "solubility thermodynamic", 25.7),
    ("CC(C)Oc1cc(Oc2ccc(S(C)(=O)=O)cc2)cc(C(=O)Nc2nccs2)c1", "solubility thermodynamic", 5.2),
    ("COc1ccc(CNC(=O)c2ccc(Oc3ccc(C#C[C@]4(O)CN5CCC4CC5)cc3)cc2)nc1", "solubility thermodynamic", 347),
    ("Cc1ccc(S(=O)(=O)Nc2c(C(=O)N[C@@H](C)C(C)(C)C)c(C)nn2C2CCCCC2)cc1", "solubility thermodynamic", 871),
    ("Cc1ccccc1C(=O)NC1CCN(Cc2ccccc2)CC1", "solubility thermodynamic", 246),
    ("CN(C(=O)C1CCC1)C1CCN(CCC(c2ccccc2)c2ccccc2)CC1", "solubility thermodynamic", 282),
    ("O=C(Nc1cccc(O)c1)c1ccc(OCCCN2CCCC2)cc1OC1CCCC1", "solubility thermodynamic", 58.9),
    ("COc1cc2c(Nc3cnc(NC(=O)c4ccccc4)nc3)ncnc2cc1OCCCN1CCOCC1", "solubility thermodynamic", 3.6),
    ("CNC(=O)[C@@H](NC(=O)[C@H](CC(C)C)[C@H](OCc1cc2c(=O)[nH]c(C)nc2cc1Br)C(=O)NO)C(C)(C)C", "solubility thermodynamic", 457),
    ("CCC(C)(C)NC(=O)Cc1ccc(C)cc1", "solubility thermodynamic", 240),
    ("CCN(C(=O)c1cnn(-c2ccccc2)c1NS(=O)(=O)c1ccc(-c2cnco2)cc1)C1CCCCC1", "solubility thermodynamic", 204),
]

* * *

assay_comment: in vitro
applied_conditions: SD, HW or BN, rat, plasma
Quick rule for you: fraction unbound at 5 h under 0.2 gets true, anything else gets false.

# compound, class_assignment
data = [
    ("CN(CCCOCCOCCc1ccccc1)CCc1ccc(O)c2nc(O)sc12", "false"),
    ("CCOc1cc2nnc(C(N)=O)c(Nc3ccc(C)cc3F)c2cc1N1CCN(C)CC1", "true"),
    ("Cn1cc[nH]c1=S [METHIMAZOLE]", "false"),
    ("C[C@@H]1C[C@H]2[C@@H]3CCC4=CC(=O)C=C[C@]4(C)[C@@]3(F)[C@@H](O)C[C@]2(C)[C@@]1(O)C(=O)CO [DEXAMETHASONE]", "true"),
    ("Fc1ccc([C@@H]2CCNC[C@H]2COc2ccc3c(c2)OCO3)cc1 [PAROXETINE]", "true"),
    ("COc1ccc(CCN2C(=O)N(NS(C)(=O)=O)C[C@@H]2c2ccc(OC)cc2)cc1", "true"),
    ("CS(=O)(=O)Nc1ccc2[nH]c(Cc3ccc(Oc4ccccc4)cc3)nc2c1", "true"),
    ("CC(C)/N=c1\\cc2n(-c3ccc(Cl)cc3)c3ccccc3nc-2cc1Nc1ccc(Cl)cc1 [CLOFAZIMINE]", "true"),
    ("COc1ccccc1-c1csc(-n2ncc(C#N)c2N)n1", "false"),
]

* * *

assay_comment: in vitro
applied_conditions: human, microsomes
experimental_endpoint: microsomal CLint (µL/min/mg)

# record_smiles, result_operator, value_reported
measured = [
    ("O=C(O)COc1ccc(C(F)(F)F)cc1-c1ccccc1-c1ccccc1", "<", 3),
    ("Nc1nc(Nc2cccc(Br)c2)c2[nH]cnc2n1", "=", 16),
    ("N#Cc1ccc(NC(=O)Nc2ccccc2Br)c2nn[nH]c12", "=", 23),
    ("Cc1c(Sc2ccc(Cl)cc2)c2ccc(S(C)(=O)=O)cc2n1CC(=O)O", "<", 3),
    ("CS(=O)(=O)c1ccc(-c2cnc(N)c(C(=O)Nc3ccccc3)n2)cc1", "=", 4.17),
    ("Cc1cc(NS(=O)(=O)c2ccc(Cl)cc2)no1", "<", 3),
]

* * *

assay_comment: in vitro
applied_conditions: hepatocytes

# compound, hepatocyte CLint
records = [
    ("C[C@@]1(C(=O)Nc2ccc(F)nc2)CCCN1c1nc(Nc2cc(C3CC3)n[nH]2)c2cccn2n1", "70.8 µL/min/1e6 cells"),
    ("Cc1oncc1C(=O)Nc1ccc(C(F)(F)F)cc1 [LEFLUNOMIDE]", "24 µL/min/1e6 cells"),
    ("O=C(NCCc1ccccc1Cl)c1cc(-n2ncc(=O)[nH]c2=O)ccc1Cl", "8 µL/min/1e6 cells"),
    ("CCc1c(C)nc(SCC(=O)Nc2nc(-c3ccc(OC)cc3)cs2)nc1O", "66.1 µL/min/1e6 cells"),
    ("C[C@H]1CN(Cc2cc(Cl)ccc2CCC(=O)O)CCN1C(=O)Cc1ccccc1", "< 3 µL/min/1e6 cells"),
    ("CCCCn1c(SCC(=O)Nc2cc(C)on2)nnc1-c1ccco1", "> 150 µL/min/1e6 cells"),
    ("Cc1cc(OCC(=O)NCc2ccccc2)c2cc(Br)ccc2n1", "51.3 µL/min/1e6 cells"),
    ("CCc1c2c(nc3ccc(O)cc13)-c1cc3c(c(=O)n1C2)COC(=O)[C@]3(O)CC [7-ETHYL-10-HYDROXYCAMPTOTHECIN]", "24 µL/min/1e6 cells"),
    ("Cc1nocc1C(=O)Nc1ccc(-c2ccccc2OC(F)(F)F)c(N)n1", "74.1 µL/min/1e6 cells"),
]
